Settings: male, Sprague-Dawley, rat, plasma, other: intranasal, 10 mg/kg, Mean plasma concentration of THC, Intranasal (10 mg/kg), propylene glycol, n = 3, rat, time 15 minutes
Attribute measured: concentration at 15 minutes (ng/mL)
Just the number please, in ng/mL, no unit attached.

Please fill in: concentration at 15 minutes reported for CCCCCc1cc(O)c2c(c1)OC(C)(C)[C@@H]1CCC(C)=C[C@@H]21 [THC, delta-9-tetrahydrocannabinol] = 3

###

Conditions: male, Sprague-Dawley, rat, plasma, other: intranasal, 10 mg/kg, Mean plasma concentration of THC, Intranasal (10 mg/kg), propylene glycol, n = 3, rat, time 120 minutes
Attribute measured: concentration at 120 minutes (ng/mL)
The answer is to be given in ng/mL; state only the numeric part.

Value of measured concentration at 120 minutes for the entry CCCCCc1cc(O)c2c(c1)OC(C)(C)[C@@H]1CCC(C)=C[C@@H]21 [THC, delta-9-tetrahydrocannabinol] : 38

Origin of values: patent US20070060639A1
